# Test system: E. coli ATCC25922
# Format: cell-based, Escherichia coli
# Test context: ATCC25922, 4 h
Where no end group is shown, it is not given here.
Each entry below carries its recorded MBC E. coli ATCC25922.
Hi! Could you send only the number? It should be in µM, unit omitted.

Solved cases below.
• KIAKGALKALKIAKVALKAL-NH2 (C-terminus assumed) [kiadin-2] = 16
• KIAKVALKALKIAKGALKAL-NH2 (C-terminus assumed) [kiadin-1] = 64

Then this substance:
Lookup: Given KIAKVALKALKIAKVALKAL-NH2 (C-terminus assumed) [DiPGLa-H] , state its recorded MBC E. coli ATCC25922.
Found: 8

* * *

Each entry below carries its recorded MBC E. coli ATCC25922.
# Tested on: E. coli ATCC25922
# Format: cell-based, Escherichia coli
# Test context: ATCC25922, 4 h
Where no end group is shown, it is not given here.

Solved cases below.
• KIAKVALKAL-NH2 (C-terminus assumed) [PGLa-H] = > 128 µM
• GMASKAGAIAGKIAKVALKAL-NH2 (C-terminus assumed) [PGLa] = > 64 µM

Then this substance:
Lookup: Given GMASKAGSVLGKVAKVALKAAL-NH2 (C-terminus assumed) [PGLa-AM1] , state its recorded MBC E. coli ATCC25922.
Found: > 64 µM
